- assayedSystem: Neuronal acetylcholine receptor; alpha4/beta2 (Rattus norvegicus, UniProt P09483+P12390)
- Sequence (P09483 whole entry): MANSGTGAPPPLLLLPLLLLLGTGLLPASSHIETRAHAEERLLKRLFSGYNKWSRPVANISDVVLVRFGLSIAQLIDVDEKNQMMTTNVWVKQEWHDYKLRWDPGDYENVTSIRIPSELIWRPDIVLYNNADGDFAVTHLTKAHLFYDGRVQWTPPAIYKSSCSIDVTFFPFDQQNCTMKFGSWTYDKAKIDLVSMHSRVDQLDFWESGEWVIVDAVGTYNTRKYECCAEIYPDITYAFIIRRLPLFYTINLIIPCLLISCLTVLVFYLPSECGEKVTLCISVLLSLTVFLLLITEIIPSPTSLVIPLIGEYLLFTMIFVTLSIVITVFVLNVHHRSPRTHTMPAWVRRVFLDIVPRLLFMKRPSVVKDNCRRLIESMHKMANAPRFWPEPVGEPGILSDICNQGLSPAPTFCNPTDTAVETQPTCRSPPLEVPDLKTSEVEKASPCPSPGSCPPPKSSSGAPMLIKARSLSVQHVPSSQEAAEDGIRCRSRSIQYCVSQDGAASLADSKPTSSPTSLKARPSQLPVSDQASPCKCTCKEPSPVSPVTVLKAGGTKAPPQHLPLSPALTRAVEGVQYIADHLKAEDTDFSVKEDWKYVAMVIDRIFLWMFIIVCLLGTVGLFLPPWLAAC
- Sequence (P12390 whole entry): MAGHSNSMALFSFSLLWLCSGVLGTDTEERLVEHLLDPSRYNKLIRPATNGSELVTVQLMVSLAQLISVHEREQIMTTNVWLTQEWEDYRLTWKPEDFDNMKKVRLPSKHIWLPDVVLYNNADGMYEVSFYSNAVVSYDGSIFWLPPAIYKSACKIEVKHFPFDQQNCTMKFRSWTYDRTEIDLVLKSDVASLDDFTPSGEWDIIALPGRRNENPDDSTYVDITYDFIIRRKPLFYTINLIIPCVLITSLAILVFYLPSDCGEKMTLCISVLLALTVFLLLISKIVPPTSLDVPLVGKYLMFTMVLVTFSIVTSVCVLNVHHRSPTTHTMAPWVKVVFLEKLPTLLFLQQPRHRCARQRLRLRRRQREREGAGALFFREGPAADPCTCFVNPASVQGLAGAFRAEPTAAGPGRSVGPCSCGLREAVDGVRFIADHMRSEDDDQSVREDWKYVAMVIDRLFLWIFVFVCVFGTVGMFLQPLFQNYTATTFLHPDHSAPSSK
- methodNotes: Displacement of [3H]cytisine from alpha4beta2 nAChR in rat brain membrane after 3 hrs
Labelling field: enter T if recorded Ki is less than 1000 nM. Enter F if it equals or exceeds that cut-off.

Field: below-cutoff. Rule: recorded Ki strictly less than 1000 nM. Subject: Cc1cc(O)cc(C)c1/C=C1\CCCN=C1c1cccnc1
T

Field: below-cutoff. Rule: recorded Ki strictly less than 1000 nM. Subject: CC(=O)Oc1ccccc1/C=C1\CCCN=C1c1cccnc1
T

Field: below-cutoff. Rule: recorded Ki strictly less than 1000 nM. Subject: N#Cc1ccc(/C=C2\CCCN=C2c2cccnc2)cc1
F

Field: below-cutoff. Rule: recorded Ki strictly less than 1000 nM. Subject: Oc1cccc(/C=C2\CCCN=C2c2cccnc2)c1
F

Field: below-cutoff. Rule: recorded Ki strictly less than 1000 nM. Subject: CSc1ccc(/C=C2\CCCN=C2c2cccnc2)cc1
T

Field: below-cutoff. Rule: recorded Ki strictly less than 1000 nM. Subject: FC(F)(F)Oc1ccc(/C=C2\CCCN=C2c2cccnc2)cc1
T

Field: below-cutoff. Rule: recorded Ki strictly less than 1000 nM. Subject: COc1ccc(/C=C2\CCCN=C2c2cccnc2)c(OC(C)=O)c1
T

Field: below-cutoff. Rule: recorded Ki strictly less than 1000 nM. Subject: FC(F)Oc1ccc(/C=C2\CCCN=C2c2cccnc2)cc1
F

Field: below-cutoff. Rule: recorded Ki strictly less than 1000 nM. Subject: C(=C1/CCCN=C1c1cccnc1)/c1ccccc1
T

Field: below-cutoff. Rule: recorded Ki strictly less than 1000 nM. Subject: FC(F)Oc1ccccc1/C=C1\CCCN=C1c1cccnc1
F

Field: below-cutoff. Rule: recorded Ki strictly less than 1000 nM. Subject: CCCc1ccc(/C=C2\CCCN=C2c2cccnc2)cc1
T

Field: below-cutoff. Rule: recorded Ki strictly less than 1000 nM. Subject: CC(C)(C)C(=O)Oc1ccccc1/C=C1\CCCN=C1c1cccnc1
F

Field: below-cutoff. Rule: recorded Ki strictly less than 1000 nM. Subject: CC(C)(C)C(=O)Oc1ccc(/C=C2\CCCN=C2c2cccnc2)cc1
T

Field: below-cutoff. Rule: recorded Ki strictly less than 1000 nM. Subject: COc1cccc(/C=C2\CCCN=C2c2cccnc2)c1
F
